Some binders, each annotated with its measured Trimeric HA Binding RLU.
Biological target: recombinant soluble homotrimeric HA of A/duck/Yangzhou/02/2005 (H8N4) (Influenza A virus A/duck/Yangzhou/02/2005 (H8N4))
Assay: HA microarray, BCC supernatant
Conditions: remark: other sources report otherwise
Respond with a number, then the unit of measure.

Recorded results for 2 binders are shown here.
[
  {
    "binder": "TCN-563 (5237_B21) (antibody, V domains shown) VH: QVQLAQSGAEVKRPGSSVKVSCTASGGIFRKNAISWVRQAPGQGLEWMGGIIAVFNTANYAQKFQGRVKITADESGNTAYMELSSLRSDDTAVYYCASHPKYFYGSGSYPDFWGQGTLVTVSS VL: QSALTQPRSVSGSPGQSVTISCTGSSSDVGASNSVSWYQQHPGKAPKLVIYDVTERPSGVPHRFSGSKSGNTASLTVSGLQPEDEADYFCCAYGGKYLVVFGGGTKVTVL",
    "obs_value": "46700 RLU"
  },
  {
    "binder": "TCN-552 (5249_I23) (antibody, V domains shown) VH: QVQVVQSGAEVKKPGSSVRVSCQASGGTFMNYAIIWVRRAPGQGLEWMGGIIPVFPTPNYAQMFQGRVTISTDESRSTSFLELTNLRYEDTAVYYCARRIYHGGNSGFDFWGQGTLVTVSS VL: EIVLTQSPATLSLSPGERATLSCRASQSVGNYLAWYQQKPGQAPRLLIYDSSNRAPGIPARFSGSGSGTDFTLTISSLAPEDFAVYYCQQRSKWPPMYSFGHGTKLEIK",
    "obs_value": "13100 RLU"
  }
]

Alright, here's another binder for you.
The reported value for TCN-547 (5092_F11) (antibody, V domains shown) VH: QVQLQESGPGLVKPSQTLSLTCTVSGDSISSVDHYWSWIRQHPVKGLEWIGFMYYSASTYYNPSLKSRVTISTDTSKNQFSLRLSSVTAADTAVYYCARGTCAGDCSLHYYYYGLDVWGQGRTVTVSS VL: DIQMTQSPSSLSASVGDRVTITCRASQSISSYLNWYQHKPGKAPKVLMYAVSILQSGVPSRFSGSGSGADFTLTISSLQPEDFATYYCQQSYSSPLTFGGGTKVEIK in terms of Trimeric HA Binding RLU is 278 RLU
